Consider the following binders; for each one, report its Cytotoxicity EC50, K562 MPL CALRdel52 cells.
# tested target: CALRdel52 (mutant calreticulin, 52 base pair deletion, Type 1) expressed with MPL on engineered cancer cells (UniProt P27797)
# Sequence (P27797 other isoform, or with tags, fused parts or gaps mutant limits assumed): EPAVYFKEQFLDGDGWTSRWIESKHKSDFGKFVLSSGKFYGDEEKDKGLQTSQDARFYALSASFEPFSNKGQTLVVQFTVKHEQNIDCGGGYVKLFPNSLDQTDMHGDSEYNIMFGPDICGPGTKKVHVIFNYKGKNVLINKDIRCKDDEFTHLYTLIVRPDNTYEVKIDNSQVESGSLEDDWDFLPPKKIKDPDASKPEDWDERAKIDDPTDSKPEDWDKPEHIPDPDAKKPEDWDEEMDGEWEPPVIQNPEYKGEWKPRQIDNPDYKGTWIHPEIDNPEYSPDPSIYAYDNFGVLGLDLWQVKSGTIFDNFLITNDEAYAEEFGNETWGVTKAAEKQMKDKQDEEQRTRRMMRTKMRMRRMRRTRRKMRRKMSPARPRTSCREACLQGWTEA
# assay comment: cell-based or functional assay
// note: answer is a bare numeric in µg/mL

Reported Cytotoxicity EC50, K562 MPL CALRdel52 cells ( CALRB116 (MP1007 Fab x CD3W245-HL-scFv, high affinity) (bispecific antibody, part only; not given: anti-CD3 scFv arm, constant regions, V domains shown, not shown: another chain or arm of the molecule; a dimerising Fc or GST; small tags and cut ends) VH: QQLEESGGRLVAPGTPLRLTCTVSGIDLSNNAVSWVRQAPGKGLEYIGVIGNTGTTYYANWAKGRFTISKTSSTTVDLKMTSLTTDDTATYFCVRGPPSYSNSVRNIWGPGTLVTVSS VL: DPMLTQTPSSVSAAVGGTVTIGCQSSQSVYDNNWLSWYQQKPGQPPNRLIYDASKLASGVPSRFSGSGSGTQFTLTISGVKSDDAATYYCAGGYTGNVYSFGGGTMVEIK ) = 0.0243

Reported Cytotoxicity EC50, K562 MPL CALRdel52 cells ( CALRB75 (MP1004 Fab x CD3W245-LH-scFv, medium affinity) (bispecific antibody, part only; not given: CD3 scFv arm and IgG1 constant regions, V domains shown, not shown: another chain or arm of the molecule; a dimerising Fc or GST; small tags and cut ends) VL: DPMLTQTPSSVSAAVGGTVTINCQSSQSVYNNNWLSWLQQKPGQPPNRLIYDASKLESGVPSRFSGSGSGTQFTLTISGVQSDDAATYYCAGGFTGNVYTFGGGTEVVVK VH: QEQLEESGGRLVTPGTPLTLTCKVSGIDLSNNAISWVRQAPGKGLEYIGVIGNTGDTYYASWAKGRFTISKTSSTTVDLKMTSLTTEDTATYFCVRGPPSYSNSVKNIWGPGTLVTISS ) = 0.193

Reported Cytotoxicity EC50, K562 MPL CALRdel52 cells ( CALRB115 (MP1004 Fab x CD3W245-HL-scFv, high affinity) (bispecific antibody, part only; not given: anti-CD3 scFv arm, constant regions, V domains shown, not shown: another chain or arm of the molecule; a dimerising Fc or GST; small tags and cut ends) VH: QEQLEESGGRLVTPGTPLTLTCKVSGIDLSNNAISWVRQAPGKGLEYIGVIGNTGDTYYASWAKGRFTISKTSSTTVDLKMTSLTTEDTATYFCVRGPPSYSNSVKNIWGPGTLVTISS VL: DPMLTQTPSSVSAAVGGTVTINCQSSQSVYNNNWLSWLQQKPGQPPNRLIYDASKLESGVPSRFSGSGSGTQFTLTISGVQSDDAATYYCAGGFTGNVYTFGGGTEVVVK ) = 0.0348

Reported Cytotoxicity EC50, K562 MPL CALRdel52 cells ( CALRB119 (MP1016 Fab x CD3W245-HL-scFv, high affinity) (bispecific antibody, part only; not given: anti-CD3 scFv arm, constant regions, V domains shown, not shown: another chain or arm of the molecule; a dimerising Fc or GST; small tags and cut ends) VL: DPVLTQTESPVSAAVGGTVTINCQASQSVYDDNNLAWYQQKPGQPPKRLIYPASTLASGVSSRFSGSGSGSQFTLTISDVQSDDAATYYCQGEFSCTSADCVAFGGGTEVVVK VH: QEQLKESGGRLVTPGTPLTLTCTASGFSLSNYYMSWVRQAPGKGLEWIGGISSRAGTWYASWAKGRFTISGTSTTMDLKITSPTTEDTATYFCARGLKIWGPGTLVTVSS ) = 0.0064

Reported Cytotoxicity EC50, K562 MPL CALRdel52 cells ( CALRB76 (MP1007 Fab x CD3W245-LH-scFv, medium affinity) (bispecific antibody, part only; not given: CD3 scFv arm and IgG1 constant regions, V domains shown, not shown: another chain or arm of the molecule; a dimerising Fc or GST; small tags and cut ends) VL: DPMLTQTPSSVSAAVGGTVTIGCQSSQSVYDNNWLSWYQQKPGQPPNRLIYDASKLASGVPSRFSGSGSGTQFTLTISGVKSDDAATYYCAGGYTGNVYSFGGGTMVEIK VH: QQLEESGGRLVAPGTPLRLTCTVSGIDLSNNAVSWVRQAPGKGLEYIGVIGNTGTTYYANWAKGRFTISKTSSTTVDLKMTSLTTDDTATYFCVRGPPSYSNSVRNIWGPGTLVTVSS ) = 0.0633
